Record form. Attribute: Activity. Fill in for each entry.
Tested on: Cladosporium sphaerospermum
testMethodNotes: Antifungal activity against Cladosporium sphaerospermum after 48 hrs
Type: functional
Kindly write the number and append the unit.

>  <compound>
O=C(CC/C=C/c1ccccc1)C1=C(O)CCCC1=O

>  <Activity>
0.25 µg

$$$$
>  <compound>
CCCCC/C=C\CCCCCCCCC(=O)C1=C(O)CCCC1=O

>  <Activity>
25 µg

$$$$
>  <compound>
O=C(CCCCCCCC/C=C/c1ccccc1)C1=C(O)CCCC1=O

>  <Activity>
25 µg

$$$$
>  <compound>
O=C(CCCCCCCCCCCCCCc1ccc2c(c1)OCO2)C1=C(O)CCCC1=O

>  <Activity>
5 µg

$$$$
>  <compound>
CCCCC/C=C\CCCCCCCCC(=O)C1=C(O)CC[C@@H](O)C1=O

>  <Activity>
10 µg

$$$$
>  <compound>
O=C1CCCC(O)=C1C(=O)CCc1ccc2c(c1)OCO2

>  <Activity>
0.5 µg

$$$$

Record Activity for all entries; do not skip any.
1. O=C(CCCCCCCCCCCCCCCCc1ccc2c(c1)OCO2)C1=C(O)CCCC1=O
2. Clc1ccc(COC(Cn2ccnc2)c2ccc(Cl)cc2Cl)c(Cl)c1 (stereo not drawn) [MICONAZOLE]

A.
1: 5 µg; 2: 1 µg

###

Tested on: K562
testMethodNotes: Cytotoxicity against human K562 cells after 48 hrs by MTT assay
Format: functional, cell-based
conditionInfo: K562, 48 h
observedProperty: pIC50
Give bare numbers, as −log10 of the molar value.

Q. Can you look up the measured pIC50 of `CCCCC/C=C\CCCCCCCCC(=O)C1=C(O)CC[C@@H](O)C1=O` for me?
A. 4.59
